- Format: in vivo, human
- condition_details: both, human, plasma, po, 50 mg, AUC0‐inf, total plasma acalabrutinib; single oral 50-mg dose; Control (n = 13); geometric mean (geometric CV%)
readout_type: AUC

Request: Which measured AUC value corresponds to CC#CC(=O)N1CCC[C@H]1c1nc(-c2ccc(C(=O)Nc3ccccn3)cc2)c2c(N)nccn12 ?
Result: 250 ng·h/mL

====

- Assay type: in vivo, human
- condition_details: human, plasma, oral, 50 mg, Cmax, LS Mean, plasma acalabrutinib; ANOVA, exponentiated LSM; Severe, n 8
readout_type: Cmax (ng/mL)
Write the value in ng/mL as a bare number.

Request: Would you kindly share the measured Cmax for CC#CC(=O)N1CCC[C@H]1c1nc(-c2ccc(C(=O)Nc3ccccn3)cc2)c2c(N)nccn12 ?
Result: 726
